- MEASUREMENT DESCRIPTION: Cmax in athymic mouse xenografted with human GTL-16 cells at 6.25 mg/kg, po qd for 14 days consecutively
- Assay type: ADME, organism-based
- EXPERIMENTAL SETUP: in vivo, time 14 day
ENDPOINT NAME: Cmax
Output should be the measured figure followed by the unit it is expressed in.

Suppose we examine the compound CCOc1ccn(-c2ccc(F)cc2)c(=O)c1C(=O)Nc1ccc(Oc2ccnc(N)c2Cl)c(F)c1 [BMS-777607] ; what Cmax value has been reported?
4.5 µM

###

- MEASUREMENT DESCRIPTION: Effect on doxorubicin resistance in human T47D cells with compound-induced polyploidy assessed as change in doxorubicin-induced cytotoxicity by measuring increase in doxorubicin IC50 at 5 umol/L preincubated for 72 hrs followed by compound washout and subsequent doxorubicin treatment for 72 hrs by MTS assay
- Type: functional, cell-based
ENDPOINT NAME: pIC50
Entry type: numeric. Quantity: pIC50, the -log10 of concentration in molar units.

# query: pIC50 of entry CCOc1ccn(-c2ccc(F)cc2)c(=O)c1C(=O)Nc1ccc(Oc2ccnc(N)c2Cl)c(F)c1
5.85

###

- ASSAY TARGET: Hepatocyte growth factor receptor (Homo sapiens, UniProt P08581)
- Sequence (P08581 whole entry): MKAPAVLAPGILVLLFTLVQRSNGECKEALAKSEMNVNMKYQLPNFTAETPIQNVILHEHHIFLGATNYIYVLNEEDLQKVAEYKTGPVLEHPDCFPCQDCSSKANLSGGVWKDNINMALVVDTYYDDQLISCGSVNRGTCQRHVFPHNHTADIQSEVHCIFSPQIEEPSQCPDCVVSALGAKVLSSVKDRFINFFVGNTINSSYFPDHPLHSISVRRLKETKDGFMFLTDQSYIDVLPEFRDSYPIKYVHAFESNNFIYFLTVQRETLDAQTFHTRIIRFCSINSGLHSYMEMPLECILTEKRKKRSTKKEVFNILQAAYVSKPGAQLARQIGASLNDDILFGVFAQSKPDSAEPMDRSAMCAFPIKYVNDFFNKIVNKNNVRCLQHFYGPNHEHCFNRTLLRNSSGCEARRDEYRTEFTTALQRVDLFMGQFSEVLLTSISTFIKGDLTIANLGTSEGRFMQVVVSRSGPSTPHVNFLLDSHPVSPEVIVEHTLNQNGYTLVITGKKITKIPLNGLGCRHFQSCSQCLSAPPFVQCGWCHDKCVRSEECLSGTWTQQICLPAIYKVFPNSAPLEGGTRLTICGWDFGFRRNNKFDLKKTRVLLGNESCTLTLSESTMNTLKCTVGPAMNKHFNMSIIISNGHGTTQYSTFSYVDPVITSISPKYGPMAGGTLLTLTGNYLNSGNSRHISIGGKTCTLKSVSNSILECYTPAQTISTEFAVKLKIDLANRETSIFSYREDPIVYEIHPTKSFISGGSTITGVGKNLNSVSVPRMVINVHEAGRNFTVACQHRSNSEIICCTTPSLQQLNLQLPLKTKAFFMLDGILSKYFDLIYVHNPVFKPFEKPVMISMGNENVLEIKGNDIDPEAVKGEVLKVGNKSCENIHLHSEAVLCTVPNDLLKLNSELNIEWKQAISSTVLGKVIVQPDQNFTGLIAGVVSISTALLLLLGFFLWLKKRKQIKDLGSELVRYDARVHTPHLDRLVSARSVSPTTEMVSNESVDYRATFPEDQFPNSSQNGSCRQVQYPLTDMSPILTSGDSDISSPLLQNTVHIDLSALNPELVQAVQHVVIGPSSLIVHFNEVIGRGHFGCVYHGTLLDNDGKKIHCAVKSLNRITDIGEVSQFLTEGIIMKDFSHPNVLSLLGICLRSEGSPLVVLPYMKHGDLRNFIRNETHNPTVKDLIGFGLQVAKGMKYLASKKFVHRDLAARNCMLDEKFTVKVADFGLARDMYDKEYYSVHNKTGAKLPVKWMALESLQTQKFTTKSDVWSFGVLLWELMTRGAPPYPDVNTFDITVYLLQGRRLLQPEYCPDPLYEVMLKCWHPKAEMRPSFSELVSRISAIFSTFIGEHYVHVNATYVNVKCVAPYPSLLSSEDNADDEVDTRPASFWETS
ENDPOINT NAME: pIC50
For clarity, pIC50 is expressed as the negative log10 of concentration in mol/L.

Entry COc1ccc2c(Oc3ccc(NC(=O)c4c(C)n(CC(C)(C)O)n(-c5ccccc5)c4=O)cc3F)ccnc2c1 : reported pIC50 = ?
8.40

###

- Tested on: ZR-75-1
- MEASUREMENT DESCRIPTION: Cytotoxicity against human ZR-75-1 cells assessed as inhibition of cell viability incubated for 72 hrs by MTS assay
- Assay type: functional, cell-based
- EXPERIMENTAL SETUP: Homo sapiens, ZR-75-1, 72 h
Quick list: IC50 per entry.
The reply should consist of the numeric value with the unit placed after it.

COc1cccc2c1C(=O)c1c(O)c3c(c(O)c1C2=O)C[C@@](O)(C(=O)CO)C[C@@H]3O[C@H]1C[C@H](N)[C@H](O)[C@H](C)O1 :: 453 nM
CC(=O)O[C@H]1C(=O)[C@@]2(C)[C@H]([C@H](OC(=O)c3ccccc3)[C@]3(O)C[C@H](OC(=O)[C@H](O)[C@@H](NC(=O)c4ccccc4)c4ccccc4)C(C)=C1C3(C)C)[C@]1(OC(C)=O)CO[C@@H]1C[C@@H]2O :: 6.2 nM

Returns the measured IC50 for the input molecule. Input: CN(Cc1cnc2nc(N)nc(N)c2n1)c1ccc(C(=O)N[C@@H](CCC(=O)O)C(=O)O)cc1 [METHOTREXATE]
66 nM

###

- ASSAY TARGET: Macrophage-stimulating protein receptor (Homo sapiens, UniProt Q04912)
- Sequence (Q04912 25-304 limits assumed): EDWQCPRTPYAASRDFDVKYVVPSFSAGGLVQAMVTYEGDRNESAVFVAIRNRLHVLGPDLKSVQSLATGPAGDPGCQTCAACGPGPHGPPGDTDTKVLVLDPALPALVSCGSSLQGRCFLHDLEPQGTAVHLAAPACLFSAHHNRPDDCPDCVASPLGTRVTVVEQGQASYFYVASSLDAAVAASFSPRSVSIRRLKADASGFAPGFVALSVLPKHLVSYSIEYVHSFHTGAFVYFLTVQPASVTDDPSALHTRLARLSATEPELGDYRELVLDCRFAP
- Sequence (Q04912 310-1400 limits assumed): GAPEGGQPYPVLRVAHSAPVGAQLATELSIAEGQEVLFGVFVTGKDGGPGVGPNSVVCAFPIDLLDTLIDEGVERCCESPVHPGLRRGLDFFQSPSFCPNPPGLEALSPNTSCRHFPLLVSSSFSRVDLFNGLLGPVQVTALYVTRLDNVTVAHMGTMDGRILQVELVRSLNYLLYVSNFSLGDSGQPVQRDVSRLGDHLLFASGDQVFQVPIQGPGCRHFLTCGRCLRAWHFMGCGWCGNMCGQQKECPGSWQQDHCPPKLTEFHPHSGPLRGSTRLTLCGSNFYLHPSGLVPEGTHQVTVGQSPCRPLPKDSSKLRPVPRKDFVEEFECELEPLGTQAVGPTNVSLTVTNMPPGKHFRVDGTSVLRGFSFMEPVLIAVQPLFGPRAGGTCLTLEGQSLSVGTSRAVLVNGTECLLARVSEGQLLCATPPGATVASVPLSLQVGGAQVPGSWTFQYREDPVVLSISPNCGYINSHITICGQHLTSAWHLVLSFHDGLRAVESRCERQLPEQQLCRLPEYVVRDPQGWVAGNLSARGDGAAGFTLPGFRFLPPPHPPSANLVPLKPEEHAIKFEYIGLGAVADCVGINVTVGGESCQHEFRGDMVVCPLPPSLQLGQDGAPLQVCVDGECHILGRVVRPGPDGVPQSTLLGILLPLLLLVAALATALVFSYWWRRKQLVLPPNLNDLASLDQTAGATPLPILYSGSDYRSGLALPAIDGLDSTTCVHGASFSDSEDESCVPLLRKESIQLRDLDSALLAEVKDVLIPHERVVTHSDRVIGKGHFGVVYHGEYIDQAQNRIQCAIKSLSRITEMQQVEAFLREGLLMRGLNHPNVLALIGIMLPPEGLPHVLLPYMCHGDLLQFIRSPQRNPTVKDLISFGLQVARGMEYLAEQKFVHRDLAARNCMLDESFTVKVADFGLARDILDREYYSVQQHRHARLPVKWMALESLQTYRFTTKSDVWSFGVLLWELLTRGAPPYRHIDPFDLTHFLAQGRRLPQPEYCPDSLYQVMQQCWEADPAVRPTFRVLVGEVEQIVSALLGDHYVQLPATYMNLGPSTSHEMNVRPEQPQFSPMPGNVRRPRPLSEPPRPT
ENDPOINT NAME: pIC50
Here pIC50 is given on a logarithmic scale as minus log10 of the concentration in mol/L.

Record lookup: for Macrophage-stimulating protein receptor (Homo sapiens, UniProt Q04912), what pIC50 belongs to COc1ccc2c(Oc3ccc(NC(=O)c4c(C)n(CC(C)(C)O)n(-c5ccccc5)c4=O)cc3F)ccnc2c1 ?
8.05
